target: UniProtKB O60885; assay: TR-FRET bromodomain binding assay, BRD4 BDII; details: mean Ki, calculated from IC50, probe Kd and probe concentration
pKi: −log10 of the molar value.
attribute measured: pKi

As a guide, the following entries are already answered.
CCNC(=O)c1cc2c(-c3cc(C(C)(C)O)ccc3Oc3c(C)cc(C(C)(C)O)cc3C)cn(C)c(=O)c2[nH]1 [Example 107]    9.10
CCNC(=O)c1cc2c(-c3cc(C(O)(C4CCCC4)C4CC4)cnc3Oc3c(C)cccc3C)cn(C)c(=O)c2[nH]1 (stereo not drawn) [Example 24]    8.77
Cc1cccc(Cl)c1Oc1ccc(C(C)(C)O)cc1-c1cn(C)c(=O)c2[nH]c(C(=O)NC(C)(C)C(F)(F)F)cc12 [Example 41]    8.32

[a] CCNC(=O)c1cc2c(-c3cc(C(C)(O)CF)cnc3Oc3c(C)cc(F)cc3C)cn(C)c(=O)c2[nH]1 (stereo not drawn) [Example 78]
[b] CCNC(=O)c1cc2c(-c3cc(C(C)(C)O)cnc3Oc3c(C)cc(F)cc3C)cn(C)c(=O)c2[nH]1 [Example 43]
Exercise: Sorting by pKi in descending order, would a or b appear first? # answer = label of selected item
Key: a
(a: 8.66, b: 8.30)

[P] CCNC(=O)c1cc2c(-c3cc(C(O)(CC)C(C)CC)cnc3Oc3c(C)cccc3C)cn(C)c(=O)c2[nH]1 (stereo not drawn) [Example 13]
[Q] Cc1cc(S(C)(=O)=O)cc(C)c1Oc1ncc(C(C)(C)O)cc1-c1cn(C)c(=O)c2[nH]c(C(=O)NC(C)(C)C)cc12 [Example 92]
Exercise: Min pKi? P | Q Returns: label corresponding to the selected item.
Key: Q

[1] CCNC(=O)c1cc2c(-c3cc(C(O)(CC)CC)cnc3Oc3c(C)cccc3C)cn(C)c(=O)c2[nH]1 [Example 2]
[2] Cc1cc(F)cc(Cl)c1Oc1ncc(C(C)(C)O)cc1-c1cn(C)c(=O)c2[nH]c(C(=O)NC(C)(C)C(F)(F)F)cc12 [Example 58]
Exercise: Please compare: 1 and 2 . Report which one has the smaller pKi value. Please reply using the label of the selected record.
Key: 2
(2: 8.09, 1: 8.52)

* * *

Target: BRD4 (BDII_E352-M457) (Homo sapiens (Human), UniProt O60885)
Experiment: TR-FRET bromodomain binding assay, BRD4 BDII
Conditions: mean Ki, calculated from IC50, probe Kd and probe concentration
Procedure: A time-resolved fluorescence resonance energy transfer (TR-FRET) assay was used to determine the affinities of compounds of the Examples listed in Table 1 for each bromodomain of BRD4. His-tagged first (BDI: amino acids K57-E168) and second (BDII: amino acids E352-M457) bromodomains of BRD4 were expressed and purified. […] After a one-hour equilibration at room temperature, TR-FRET ratios were determined using an Envision multilabel plate reader (Ex 340, Em 495/520). […]
attribute measured: Ki (nM)

Cc1cccc(Cl)c1Oc1ncc(C(C)(C)O)cc1-c1cn(C)c(=O)c2[nH]c(C(=O)NC(C)(C)C(F)(F)F)cc12    5.7

[I] CCNC(=O)c1cc2c(-c3cc(C(C)(C)O)ccc3Oc3c(C)cccc3C(F)(F)F)cn(C)c(=O)c2[nH]1
[II] Cc1cc(C(C)(C)O)cc(C)c1Oc1ccc(C(C)(C)O)cc1-c1cn(C)c(=O)c2[nH]c(C(=O)NC(C)(C)C)cc12
[III] Cc1cccc(Cl)c1Oc1ncc(C(C)(C)O)cc1-c1cn(C)c(=O)c2[nH]c(C(=O)NC(C)(C)C)cc12
Exercise: Parameters: sort_field (Ki), sort_dir (desc). A complete answer lists every label in the requested sequence.
Key: I, III, II

* * *

molecular target: BRD4 (BDI_K57-E168) (Homo sapiens (Human)); assay: TR-FRET bromodomain binding assay, BRD4 BDI; details: mean Ki, calculated from IC50, probe Kd and probe concentration
pKi: −log10 of the molar value.
attribute measured: pKi

Illustrative cases are given below, each with its answer.
CCNC(=O)c1cc2c(-c3cc(C4(O)CC=CC4)ccc3Oc3c(C)cccc3C)cn(C)c(=O)c2[nH]1    6.73
Cc1cc(F)cc(C)c1Oc1ccc(C(C)(C)O)cc1-c1cn(C)c(=O)c2[nH]c(C(=O)NC3CC3)cc12    6.45
CCNC(=O)c1cc2c(-c3cc(C4(O)CCC4)ccc3Oc3c(C)cc(F)cc3C)cn(C)c(=O)c2[nH]1    6.51
Cc1cc(F)cc(C)c1Oc1ccc(C(C)(C)O)cc1-c1cn(C)c(=O)c2[nH]c(C(=O)NC(C)(C)C)cc12    6.24

[A] CCNC(=O)c1cc2c(-c3cc(C(C)(O)CCCO)ccc3Oc3c(C)cc(F)cc3C)cn(C)c(=O)c2[nH]1 (stereo not drawn)
[B] CNC(=O)c1cc2c(-c3cc(C(C)(C)O)ccc3Oc3c(C)cc(F)cc3C)cn(C)c(=O)c2[nH]1
Exercise: Smaller pKi value? Options are A and B Please identify the chosen entry by its label.
Key: A

* * *

molecular target: BRD4 (BDI_K57-E168) (Homo sapiens (Human), UniProt O60885); assay: TR-FRET bromodomain binding assay, BRD4 BDI; settings: mean Ki, calculated from IC50, probe Kd and probe concentration
pKi: −log10 of the molar value.
attribute measured: pKi

CCNC(=O)c1cc2c(-c3cc(C(O)(C4CC4)C4CC4)cnc3Oc3c(C)cccc3C)cn(C)c(=O)c2[nH]1    6.77

[a] Cc1cccc(C(F)(F)F)c1Oc1ccc(C(C)(C)O)cc1-c1cn(C)c(=O)c2[nH]c(C(=O)NC(C)(C)C)cc12
[b] CCNC(=O)c1cc2c(-c3cc(C(C)(O)CF)ccc3Oc3c(C)cc(F)cc3C)cn(C)c(=O)c2[nH]1 (centres unmarked)
[c] CCNC(=O)c1cc2c(-c3cc(C(O)(C(C)CC)C4CC4)cnc3Oc3c(C)cccc3C)cn(C)c(=O)c2[nH]1 (centres unmarked)
Exercise: Please list these molecules in decreasing order of pKi. Hello, could you send the labels back in the order asked? Thank you.
Key: c, b, a

* * *

target: BRD4 (BDII_E352-M457) (Homo sapiens (Human), UniProt O60885); test: TR-FRET bromodomain binding assay, BRD4 BDII; conditions: mean Ki, calculated from IC50, probe Kd and probe concentration
pKi: −log10 of the molar value.
attribute measured: pKi

CCNC(=O)c1cc2c(-c3cc(C(O)(CC)c4ccccc4)cnc3Oc3c(C)cccc3C)cn(C)c(=O)c2[nH]1 (stereo not drawn)    8.39

[a] CCNC(=O)c1cc2c(-c3cc(C(C)(C)O)ccc3Oc3c(C)cc(F)cc3C(F)F)cn(C)c(=O)c2[nH]1
[b] CCNC(=O)c1cc2c(-c3cc(C(C)(C)O)cnc3Oc3c(C)ccc(F)c3C)cn(C)c(=O)c2[nH]1
[c] CCNC(=O)c1cc2c(-c3cc(C(C)(C)O)cnc3Oc3c(C)cccc3C(F)(F)F)cn(C)c(=O)c2[nH]1
[d] CCNC(=O)c1cc2c(-c3cc(C(C)(C)O)ccc3Oc3c(C)ccnc3C)cn(C)c(=O)c2[nH]1
[e] Cc1cc(F)cc(C)c1Oc1ccc(C(C)(C)O)cc1-c1cn(C)c(=O)c2[nH]c(C(=O)NC3CC3)cc12
Exercise: List the 5 entries from lowest pKi to highest pKi value. Answer format: the labels, in the requested order.
Key: a, c, d, b, e

[A] CCNC(=O)c1cc2c(-c3cc(C(O)(CC)C4CC4)cnc3Oc3c(C)cccc3C)cn(C)c(=O)c2[nH]1 (stereo not drawn)
[B] Cc1cc(F)cc(Cl)c1Oc1ncc(C(C)(C)O)cc1-c1cn(C)c(=O)c2[nH]c(C(=O)NC(C)(C)C)cc12
Exercise: // compare measured pKi, left A , right B , return larger Identify your selection by its label.
Key: A

* * *

biological target: BRD4 (BDII_E352-M457) (Homo sapiens (Human), UniProt O60885); experiment: TR-FRET bromodomain binding assay, BRD4 BDII; details: mean Ki, calculated from IC50, probe Kd and probe concentration
pKi: −log10 of the molar value.
attribute measured: pKi

Completed entries (count: 7):
CCNC(=O)c1cc2c(-c3cc(C(C)(O)Cc4ccc(F)cc4)cnc3Oc3c(C)cccc3C)cn(C)c(=O)c2[nH]1 (stereo not drawn)    7.98
Cn1cc(-c2cc(C(C)(C)O)ccc2-c2ccc(F)cc2F)c2cc(C(=O)NC(C)(C)C)[nH]c2c1=O    8.19
CCNC(=O)c1cc2c(-c3cc(C(C)(C)O)ccc3Oc3c(C)cc(F)cc3Cl)cn(C)c(=O)c2[nH]1    9.00
Cc1cc(C(C)(C)O)cc(C)c1Oc1ncc(C(C)(C)O)cc1-c1cn(C)c(=O)c2[nH]c(C(=O)NC(C)(C)C)cc12    8.46
Cn1cc(-c2cc(C(C)(C)O)cnc2Oc2c(Cl)cc(F)cc2Cl)c2cc(C(=O)NC(C)(C)C)[nH]c2c1=O    8.25
CCNC(=O)c1cc2c(-c3cc(C(C)(O)CCc4ccccc4)cnc3Oc3c(C)cccc3C)cn(C)c(=O)c2[nH]1 (stereo not drawn)    8.82
Cc1cc(F)cc(C)c1Oc1ccc(C(C)(C)O)cc1-c1cn(C)c(=O)c2[nH]c(C(=O)NC(C)(C)C(F)(F)F)cc12    8.16

[a] Cc1cccc(C(F)(F)F)c1Oc1ncc(C(C)(C)O)cc1-c1cn(C)c(=O)c2[nH]c(C(=O)NC(C)(C)C(F)(F)F)cc12
[b] CCNC(=O)c1cc2c(-c3cc(C4(O)CC=CC4)ccc3Oc3c(C)cccc3C)cn(C)c(=O)c2[nH]1
Exercise: // compare measured pKi, left a , right b , return larger In your reply, give the label of the chosen option.
Key: b
